Tested on: HCI-027 (organoid from a triple-negative breast cancer xenograft)
Assay: CTG-3D luminescence at 96 h relative to day-0 seeding control (ratio to day 0); higher = more growth / less cytotoxicity; PDxO 3D drug screen, 96 h, CTG-3D normalised to day-0 seeding control.
Settings: 10 µM; days in culture: 194
Result type: CTG-3D luminescence at 96 h
Output: the number by itself.

Answered cases to consult:
>  <Compound>
CS(=O)(=O)c1ccc(C(=O)Nc2ccc(Cl)c(-c3ccccn3)c2)c(Cl)c1 [vismodegib]

>  <CTG-3D luminescence at 96 h>
2.12

$$$$
>  <Compound>
C=CCn1c(=O)c2cnc(Nc3ccc(N4CCN(C)CC4)cc3)nc2n1-c1cccc(C(C)(C)O)n1 [adavosertib]

>  <CTG-3D luminescence at 96 h>
0.0827

$$$$
>  <Compound>
O=C(c1ccc(F)c(F)c1Nc1ccc(I)cc1F)N1CC(O)([C@@H]2CCCCN2)C1 [cobimetinib]

>  <CTG-3D luminescence at 96 h>
0.796

$$$$

As a next step, examine the compound that follows.
CTG-3D luminescence at 96 h of NC(=O)Nc1cc(-c2cccc(F)c2)sc1C(=O)N[C@H]1CCCNC1 [AZD7762] on HCI-027?
0.0685

* * *

Test system: HCI-008 (organoid from a HER2-enriched breast cancer xenograft)
Test: CTG-3D luminescence at 96 h relative to day-0 seeding control (ratio to day 0); higher = more growth / less cytotoxicity; PDxO 3D drug screen (set 2), 96 h, CTG-3D normalised to day-0 seeding control.
Conditions: 1 µM; days in culture: 325
Label Met when CTG-3D luminescence at 96 h is at or above 2; anything below gets Not met.

Some solved entries appear below for comparison.
>  <Molecule>
COc1cccc2c1C(=O)c1c(O)c3c(c(O)c1C2=O)C[C@@](O)(C(=O)CO)C[C@@H]3O[C@H]1C[C@H](N)[C@@H](O)[C@H](C)O1 [epirubicin]

>  <Group>
Not met

$$$$
>  <Molecule>
CC(=O)c1c(C)c2cnc(Nc3ccc(N4CCNCC4)cn3)nc2n(C2CCCC2)c1=O

>  <Group>
Met

$$$$

Does the reported CTG-3D luminescence at 96 h for CS(=O)(=O)CCNCc1ccc(-c2ccc3ncnc(Nc4ccc(OCc5cccc(F)c5)c(Cl)c4)c3c2)o1 fall at or above the 2 mark?
Met

Do the same for O=C(c1cc(Cc2n[nH]c(=O)c3ccccc23)ccc1F)N1CCN(C(=O)C2CC2)CC1 please
Met

Now give it for CO[C@H]1C[C@@H]2CC[C@@H](C)[C@@](O)(O2)C(=O)C(=O)N2CCCC[C@H]2C(=O)O[C@H]([C@H](C)C[C@@H]2CC[C@@H](OCCO)[C@H](OC)C2)CC(=O)[C@H](C)/C=C(\C)[C@@H](O)[C@@H](OC)C(=O)[C@H](C)C[C@H](C)/C=C/C=C/C=C/1C too.
Met

* * *

Tested on: HCI-010 (organoid from a breast cancer xenograft)
Experiment: CTG-3D luminescence at 96 h relative to day-0 seeding control (ratio to day 0); higher = more growth / less cytotoxicity; PDxO 3D drug screen, 96 h, CTG-3D normalised to day-0 seeding control.
Details: 0.00025 µM; days in culture: 103
Result type: CTG-3D luminescence at 96 h

>  <Compound>
CC(C)n1nc(-c2ccc3oc(N)nc3c2)c2c(N)ncnc21 [sapanisertib]

>  <CTG-3D luminescence at 96 h>
3.1

$$$$

Fill in the blank: the reported CTG-3D luminescence at 96 h of CN(Cc1cnc2nc(N)nc(N)c2n1)c1ccc(C(=O)N[C@@H](CCC(=O)O)C(=O)O)cc1 [methotrexate] is ____.
3.7

Same thing, different compound: CC[C@H](NC(=O)[C@H](C)NC)C(=O)N1C[C@@H](O)C[C@H]1Cc1c(-c2[nH]c3cc(F)ccc3c2C[C@@H]2C[C@H](O)CN2C(=O)[C@H](CC)NC(=O)[C@H](C)NC)[nH]c2cc(F)ccc12 [birinapant]
3.66

Check Nc1ccn([C@@H]2O[C@H](CO)[C@@H](O)C2(F)F)c(=O)n1 [gemcitabine] too.
3.81

Item: C=CC(=O)N1CCC[C@@H](n2nc(-c3ccc(Oc4ccccc4)cc3)c3c(N)ncnc32)C1 [ibrutinib]
3.57

* * *

Tested on: HCI-024 (organoid from a breast cancer xenograft)
Assay: CTG-3D luminescence at 96 h relative to day-0 seeding control (ratio to day 0); higher = more growth / less cytotoxicity; PDxO 3D drug screen, 96 h, CTG-3D normalised to day-0 seeding control.
Details: 0.00025 µM; days in culture: 105
Result type: CTG-3D luminescence at 96 h
# respond with the number and nothing more

>  <Compound>
COc1cccc2c1C(=O)c1c(O)c3c(c(O)c1C2=O)C[C@@](O)(C(=O)CO)C[C@@H]3O[C@H]1C[C@H](N)[C@H](O)[C@H](C)O1 [doxorubicin]

>  <Measured target>
HCI-024

>  <CTG-3D luminescence at 96 h>
1.64

$$$$
>  <Compound>
CNC(=O)c1cccc(-c2ccc3c(N4CCOC[C@@H]4C)nc(N4CCOC[C@@H]4C)nc3n2)c1 [vistusertib]

>  <Measured target>
HCI-024

>  <CTG-3D luminescence at 96 h>
1.79

$$$$

Alright, here's another compound for you.
Tell me the measured CTG-3D luminescence at 96 h of CC[C@H](NC(=O)[C@H](C)NC)C(=O)N1C[C@@H](O)C[C@H]1Cc1c(-c2[nH]c3cc(F)ccc3c2C[C@@H]2C[C@H](O)CN2C(=O)[C@H](CC)NC(=O)[C@H](C)NC)[nH]c2cc(F)ccc12 [birinapant] , please.
1.17

* * *

Test system: HCI-001 (organoid from a triple-negative breast cancer xenograft)
Test: CTG-3D luminescence at 96 h relative to day-0 seeding control (ratio to day 0); higher = more growth / less cytotoxicity; PDxO 3D drug screen, 96 h, CTG-3D normalised to day-0 seeding control.
Conditions: 0.1 µM; days in culture: 240
As shown below, each of these compounds has a reported CTG-3D luminescence at 96 h value.

Consider the reported CTG-3D luminescence at 96 h for these compounds:
>  <Smiles record>
COc1cccc2c1C(=O)c1c(O)c3c(c(O)c1C2=O)C[C@@](O)(C(=O)CO)C[C@@H]3O[C@H]1C[C@H](N)[C@H](O)[C@H](C)O1

>  <Measured target>
HCI-001

>  <CTG-3D luminescence at 96 h>
1.06

$$$$
>  <Smiles record>
O=C(/C=C/c1cccnc1)NCCCCC1CCN(C(=O)c2ccccc2)CC1

>  <Measured target>
HCI-001

>  <CTG-3D luminescence at 96 h>
0.167

$$$$
>  <Smiles record>
Cc1cc(Nc2ncnc3ccc(NC4=NC(C)(C)CO4)cc23)ccc1Oc1ccn2ncnc2c1

>  <Measured target>
HCI-001

>  <CTG-3D luminescence at 96 h>
1.24

$$$$
>  <Smiles record>
Nc1ccn([C@@H]2O[C@H](CO)[C@@H](O)C2(F)F)c(=O)n1

>  <Measured target>
HCI-001

>  <CTG-3D luminescence at 96 h>
0.596

$$$$
>  <Smiles record>
CC(C)n1nc(-c2ccc3oc(N)nc3c2)c2c(N)ncnc21

>  <Measured target>
HCI-001

>  <CTG-3D luminescence at 96 h>
0.395

$$$$
>  <Smiles record>
CNC(=O)c1cccc(-c2ccc3c(N4CCOC[C@@H]4C)nc(N4CCOC[C@@H]4C)nc3n2)c1

>  <Measured target>
HCI-001

>  <CTG-3D luminescence at 96 h>
0.68

$$$$

Note: attention shifts to another entry.
Which CTG-3D luminescence at 96 h value belongs to Cc1nc(-c2cn3c(n2)-c2ccc(-c4cnn(C(C)(C)C(N)=O)c4)cc2OCC3)n(C(C)C)n1 ?
0.482

* * *

Readings of CTG-3D luminescence at 96 h for the listed molecules
System: HCI-003.E2 (organoid from an ER-positive breast cancer xenograft)
Assay: CTG-3D luminescence at 96 h relative to day-0 seeding control (ratio to day 0); higher = more growth / less cytotoxicity; PDxO 3D drug screen, 96 h, CTG-3D normalised to day-0 seeding control.
Details: 1 µM
Reply: number alone, nothing else.

Take a look at these entries with their results.
>  <Smiles record>
CCN1CCN(Cc2ccc(Nc3ncc(F)c(-c4cc(F)c5nc(C)n(C(C)C)c5c4)n3)nc2)CC1

>  <CTG-3D luminescence at 96 h>
1.98

$$$$
>  <Smiles record>
C/C=C1\NC(=O)[C@H]2CSSCC/C=C/[C@H](CC(=O)N[C@H](C(C)C)C(=O)N2)OC(=O)[C@H](C(C)C)NC1=O

>  <CTG-3D luminescence at 96 h>
0.0243

$$$$
>  <Smiles record>
NC1(C(=O)N[C@@H](CCO)c2ccc(Cl)cc2)CCN(c2nc[nH]c3nccc2-3)CC1

>  <CTG-3D luminescence at 96 h>
0.832

$$$$

Could you now look at the following molecule, please?
State the recorded CTG-3D luminescence at 96 h for this entry: CC1(C)CCC(c2ccc(Cl)cc2)=C(CN2CCN(c3ccc(C(=O)NS(=O)(=O)c4ccc(N[C@H](CCN5CCOCC5)CSc5ccccc5)c(S(=O)(=O)C(F)(F)F)c4)cc3)CC2)C1
1.78
